Please provide measured Ki for the entries that follow.
target: glucocorticoid receptor (Homo sapiens); construct: endogenous in cells; assay: Ligand binding assay (GR BIND)
A bare number is not enough; add the unit after it.

[
  {
    "compound": "C[C@]12Cc3cnn(-c4ccc(F)cc4)c3C=C1CC[C@@H]2CN(CCc1ccncc1)S(=O)(=O)CC(F)(F)F [Example 129]",
    "result": "1.9 nM"
  },
  {
    "compound": "CCCS(=O)(=O)N(CC(O)C(F)F)C[C@H]1CCC2=Cc3c(cnn3-c3ccc(F)cc3)C[C@@]21C (some centres unmarked) [Example 155]",
    "result": "2.9 nM"
  },
  {
    "compound": "C[C@]12Cc3cnn(-c4ccc(F)cc4)c3C=C1CC[C@@H]2CN(CC=O)S(=O)(=O)c1ccccc1F [Example 158]",
    "result": "4.2 nM"
  },
  {
    "compound": "C[C@]12Cc3cnn(-c4ccc(F)cc4)c3C=C1CC[C@@H]2CN(CCc1ccccc1F)S(=O)(=O)CC(F)(F)F [Example 89]",
    "result": "2.4 nM"
  },
  {
    "compound": "C[C@]12Cc3cnn(-c4ccc(F)cc4)c3C=C1CC[C@@H]2CN(CC#N)S(=O)(=O)c1cccc2ccccc12 [Example 40]",
    "result": "10.5 nM"
  }
]

State recorded Ki for all listed compounds.
1. COC(=O)c1ccccc1CCN(C[C@H]1CCC2=Cc3c(cnn3-c3ccc(F)cc3)C[C@@]21C)S(=O)(=O)CC(F)(F)F [Example 159]
2. C[C@]12Cc3cnn(-c4ccc(F)cc4)c3C=C1CC[C@@H]2CN(CC1CC1)S(=O)(=O)c1cc(C(F)(F)F)ccc1Cl [Example 5]
3. C[C@]12Cc3cnn(-c4ccc(F)cc4)c3C=C1CC[C@@H]2CN(CC#N)S(=O)(=O)c1cc(F)c(F)cc1F [Example 47]
4. Cn1cc(S(=O)(=O)N(CC(O)C(F)F)C[C@H]2CCC3=Cc4c(cnn4-c4ccc(F)cc4)C[C@@]32C)c(C(F)(F)F)n1 (some centres unmarked) [Example 156]

Reply:
1. 1.9 nM
2. 1 nM
3. 0.7 nM
4. 2.5 nM

State recorded Ki for all listed compounds.
1. Cn1cc(S(=O)(=O)N(CC#N)C[C@H]2CCC3=Cc4c(cnn4-c4ccc(F)cc4)C[C@@]32C)c(C(F)(F)F)n1 [Example 32]
2. CCCCS(=O)(=O)N(CCc1ccccc1F)C[C@H]1CCC2=Cc3c(cnn3-c3ccc(F)cc3)C[C@@]21C [Example 102]
3. Cc1noc(C)c1S(=O)(=O)NC[C@H]1CCC2=Cc3c(cnn3-c3ccc(F)cc3)C[C@@]21C [Example 161]
4. CCCS(=O)(=O)N(CCc1ccccc1F)C[C@H]1CCC2=Cc3c(cnn3-c3ccc(F)cc3)C[C@@]21C [Example 87]
5. C[C@]12Cc3cnn(-c4ccc(F)cc4)c3C=C1CC[C@@H]2CN(CCO)S(=O)(=O)c1ccccc1-c1ccccc1 [Example 84]

Reply:
["3.9 nM", "2.6 nM", "4.8 nM", "2.8 nM", "2.6 nM"]

----------
biological target: glucocorticoid receptor (Homo sapiens, UniProt P04150); construct: endogenous in cells; assay: Ligand binding assay (GR BIND)
Sequence (P04150 whole entry): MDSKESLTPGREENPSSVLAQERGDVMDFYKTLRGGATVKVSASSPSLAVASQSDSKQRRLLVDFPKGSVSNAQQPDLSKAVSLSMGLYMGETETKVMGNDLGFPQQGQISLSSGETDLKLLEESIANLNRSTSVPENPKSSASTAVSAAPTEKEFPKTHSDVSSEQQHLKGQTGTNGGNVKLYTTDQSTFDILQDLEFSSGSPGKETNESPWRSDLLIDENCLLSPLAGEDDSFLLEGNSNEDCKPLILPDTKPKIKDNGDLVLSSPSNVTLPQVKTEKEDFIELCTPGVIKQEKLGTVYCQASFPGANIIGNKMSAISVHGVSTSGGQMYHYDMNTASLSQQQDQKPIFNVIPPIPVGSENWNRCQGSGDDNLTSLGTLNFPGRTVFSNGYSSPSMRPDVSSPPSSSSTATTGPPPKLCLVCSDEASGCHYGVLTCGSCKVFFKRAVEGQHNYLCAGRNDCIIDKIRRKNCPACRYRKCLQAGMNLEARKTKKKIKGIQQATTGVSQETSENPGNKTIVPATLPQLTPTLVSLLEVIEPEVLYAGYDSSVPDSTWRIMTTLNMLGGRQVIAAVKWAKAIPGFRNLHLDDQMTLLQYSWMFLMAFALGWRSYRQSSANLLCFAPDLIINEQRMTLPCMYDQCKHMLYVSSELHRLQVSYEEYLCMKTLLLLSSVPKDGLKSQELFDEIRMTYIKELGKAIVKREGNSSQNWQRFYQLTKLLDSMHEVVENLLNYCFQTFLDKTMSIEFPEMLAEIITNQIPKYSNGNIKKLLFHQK
Decide using Ki alone. Strictly below 2 nM: Met. Equal to or above 2 nM: Not met.

[
  {
    "compound": "C[C@]12Cc3cnn(-c4ccc(F)cc4)c3C=C1CC[C@@H]2CN(CCc1ccccc1F)S(=O)(=O)Cc1ccccc1Cl [Example 107]",
    "test-target": "glucocorticoid receptor (Homo sapiens, UniProt P04150)",
    "class": "Met"
  },
  {
    "compound": "CCS(=O)(=O)N(CCOC)C[C@H]1CCC2=Cc3c(cnn3-c3ccc(F)cc3)C[C@@]21C [Example 171]",
    "test-target": "glucocorticoid receptor (Homo sapiens, UniProt P04150)",
    "class": "Not met"
  },
  {
    "compound": "C[C@]12Cc3cnn(-c4ccc(F)cc4)c3C=C1CC[C@@H]2CN(CC1CC1)S(=O)(=O)c1ccc(F)c(Cl)c1 [Example 15]",
    "test-target": "glucocorticoid receptor (Homo sapiens, UniProt P04150)",
    "class": "Met"
  },
  {
    "compound": "Cn1cc(S(=O)(=O)N(CC(O)c2ccccn2)C[C@H]2CCC3=Cc4c(cnn4-c4ccc(F)cc4)C[C@@]32C)c(C(F)(F)F)n1 (stereo partly shown) [Example 157]",
    "test-target": "glucocorticoid receptor (Homo sapiens, UniProt P04150)",
    "class": "Met"
  },
  {
    "compound": "CNC(=O)Nc1ccc(S(=O)(=O)N(CCO)C[C@H]2CCC3=Cc4c(cnn4-c4ccc(F)cc4)C[C@@]32C)c(Cl)c1 [Example 76]",
    "test-target": "glucocorticoid receptor (Homo sapiens, UniProt P04150)",
    "class": "Not met"
  }
]

Query: Say whether its Ki is strictly beneath 2 nM. Entry: Cc1ccccc1S(=O)(=O)N(CCO)C[C@H]1CCC2=Cc3c(cnn3-c3ccc(F)cc3)C[C@@]21C [Example 77]
Reply: Met

Query: Say whether its Ki is strictly beneath 2 nM. Entry: C[C@]12Cc3cnn(-c4ccc(F)cc4)c3C=C1CC[C@@H]2CN(CCO)S(=O)(=O)c1ccc(F)c(Cl)c1 [Example 19]
Reply: Not met
